Reference source: patent US20250312491A1

Test system: human TTR gene
Experiment: Base editing in primary human hepatocytes co-transfected with gRNA and ABE8.8 mRNA, NGS
Type: cell-based
Conditions: 1250 ng/RNA/mL, rep 2, 3 days after transfection
Reported Human hepatocytes- Editing % 1250, rep 2 by item:

Example molecules with recorded Human hepatocytes- Editing % 1250, rep 2:
GA459: guide RNA, human TTR, protospacer GCAACTTACCCAGAGGCAAA (SEQ ID NO: 25), gRNA SEQ ID NO: 13 (nucleic acid, chemistry not given here) guide: GCAACTTACCCAGAGGCAAAGTTTTAGAGCTAGAAATAGCAAGTTAAAATAAGGCTAGTCCGTTATCAACTTGAAAAAGTGGCACCGAGTCGGTGCTTTT	6.15%
GA460: guide RNA, human/cyno TTR, protospacer TATAGGAAAACCAGTGAGTC (SEQ ID NO: 26), gRNA SEQ ID NO: 14 (nucleic acid, chemistry not given here) guide: TATAGGAAAACCAGTGAGTCGTTTTAGAGCTAGAAATAGCAAGTTAAAATAAGGCTAGTCCGTTATCAACTTGAAAAAGTGGCACCGAGTCGGTGCTTTT	35.8%
GA461: guide RNA, human/cyno TTR, protospacer TACTCACCTCTGCATGCTCA (SEQ ID NO: 27), gRNA SEQ ID NO: 15 (nucleic acid, chemistry not given here) guide: TACTCACCTCTGCATGCTCAGTTTTAGAGCTAGAAATAGCAAGTTAAAATAAGGCTAGTCCGTTATCAACTTGAAAAAGTGGCACCGAGTCGGTGCTTTT	32.38%

// lookup Human hepatocytes- Editing % 1250, rep 2 for GA457: guide RNA, human TTR, protospacer GCCATCCTGCCAAGAATGAG (SEQ ID NO: 24), gRNA SEQ ID NO: 11 (nucleic acid, chemistry not given here) guide: GCCATCCTGCCAAGAATGAGGTTTTAGAGCTAGAAATAGCAAGTTAAAATAAGGCTAGTCCGTTATCAACTTGAAAAAGTGGCACCGAGTCGGTGCTTTT
24.86%
